Each entry below lists one item and its recorded pKi value.
- Target entity: ACE-2 (Homo sapiens)
- Construct: a stop codon inserted after the serine immediately preceding the transmembrane domain; made in house; host or cells: CHO K1 cells (transient transfection, purified from conditioned medium)
- Sequence (Q9BYF1 18-740 limits assumed): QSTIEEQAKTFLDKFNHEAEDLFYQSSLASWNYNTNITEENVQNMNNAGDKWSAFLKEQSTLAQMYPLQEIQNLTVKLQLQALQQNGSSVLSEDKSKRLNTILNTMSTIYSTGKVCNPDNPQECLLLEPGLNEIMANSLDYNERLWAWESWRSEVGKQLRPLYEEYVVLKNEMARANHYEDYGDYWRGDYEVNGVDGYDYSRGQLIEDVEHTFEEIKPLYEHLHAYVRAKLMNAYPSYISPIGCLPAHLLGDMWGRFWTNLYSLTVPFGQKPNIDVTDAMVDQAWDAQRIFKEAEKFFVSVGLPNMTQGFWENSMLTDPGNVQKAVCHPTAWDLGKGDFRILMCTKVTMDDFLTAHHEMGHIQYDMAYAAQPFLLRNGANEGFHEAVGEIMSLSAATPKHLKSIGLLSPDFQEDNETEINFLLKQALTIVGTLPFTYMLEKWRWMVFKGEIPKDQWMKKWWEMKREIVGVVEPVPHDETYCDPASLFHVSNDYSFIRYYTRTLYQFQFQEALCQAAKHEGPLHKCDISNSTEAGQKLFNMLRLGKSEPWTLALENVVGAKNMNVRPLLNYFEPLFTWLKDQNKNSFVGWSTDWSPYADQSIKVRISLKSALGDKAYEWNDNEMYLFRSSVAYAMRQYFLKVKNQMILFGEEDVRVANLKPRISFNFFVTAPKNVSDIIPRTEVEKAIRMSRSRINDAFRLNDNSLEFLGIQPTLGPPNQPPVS
- Assay comment: ACE-2 Competitive Substrate Assay (ACS Assay)
- Format: biochemical
- Measurement setup: Ki class; compounds tested in 5% DMSO, 12 compound concentrations, Ki=Kiapp/(1+[S]/Km); read-out: Human ACE-2 Activity
pKi: −log10 of the molar value.

Field: example entries. Status: answers known.
Ask: Test system ACE-2 (Homo sapiens); read-out pKi; what value for CC(C)C[C@H](N[C@@H](Cc1cncn1Cc1cc(Cl)cc(Cl)c1)C(=O)OCc1ccccc1)C(=O)O [LB] ?
Result: < 6.30

Ask: Also need COC(=O)[C@H](Cc1cncn1Cc1cc(Cl)cc(Cl)c1)N[C@H](CC(C)C)C(=O)OCc1ccccc1 [LA] , thanks.
Result: < 6.30

Ask: Next up: CC(C)C[C@H](N[C@@H](Cn1ccn(-c2cc(F)cc(F)c2)c1=O)C(=O)O)C(=O)O [MS]
Result: 6.30 to 7.00

***
Ask: Lab note: need pKi for CC(C)C[C@H](N[C@@H](CC(=O)Nc1nc2ccc(Cl)cc2s1)C(=O)O)C(=O)O [MB] on ACE-2 (Homo sapiens), anyone have it?
Result: > 7.00
